All figures here come from patent US20140295512A1.

# Experiment: KARI assay of purified S. exigua KARI and variants with NADH (Examples 6-9)
# Type: biochemical
Property: kcat/Km ratio NADH/NADPH (cofactor specificity)
Answer as a number with no unit attached.

What kcat/Km ratio NADH/NADPH (cofactor specificity) value was documented for this molecule, Se1_KARI^AC1: S. exigua KARI variant S63D, I95A (protein, UniProt D0WGK0 1-342, looked up, variant S63D I95A) Ketol-acid reductoisomerase …: MSVKTKEKEMAVTILYEQDVDPKVIQGLKVGIIGYGSQGHAHALNLMDSGVDVRVGLREGSSDWKTAEEAGLKVTDMDTAAEEADVIMVLVPDEAQPKVYQEHIAAHLKAGNTLAFAHGFNIHYGYIVPPEDVNVIMCAPKGPGHIVRRQFTEGSGVPDLACVQQDATGNAWDIVLSYCWGVGGARSGIIKATFAEETEEDLFGEQAVLCGGLVELVKAGFETLTEAGYPPELAYFECYHEMKMIVDLMYESGIHFMNYSISNTAEYGEYYAGPKVINEQSREAMKEILKRIQDGSFAQEFVDDCNNGHKRLLEQREAINTHPIETTGAQIRSMFSWIKKED ? 0.3
